tested on: Mus musculus; assay: Biodistribution in large gastrointestinal tract of C57BL/6J mouse bearing mouse B16F0 cells at 0.37 to 1.85 MBq, iv after 6 hrs by gamma counting method; assay type: ADME, organism-based; conditions: in vivo
Recorded Drug uptake, one value per entry.
Kindly provide the numeric value in % ID/g only, without the unit symbol.

Field: example entries. Status: answers known.
[
  {
    "structure_string": "O=C(c1ccc2c(n1)NCCC2)N1CCN(Cc2ccc([123I])cc2)CC1",
    "meas_value": 87.1
  },
  {
    "structure_string": "O=C(CN1Cc2ccccc2C1=O)N1C[C@H]2CN(Cc3ccc([123I])cc3)C[C@H]2C1",
    "meas_value": 23.1
  },
  {
    "structure_string": "O=C(CN1Cc2ccccc2C1=O)NC1CCN(Cc2ccc([123I])cc2)CC1",
    "meas_value": 17.6
  }
]

Now for the compound whose Drug uptake we want.
[ask] Need Drug uptake, item O=C(c1ccc2cccnc2n1)N1CCN(Cc2ccc([123I])cc2)CC1
[reply] 18.6

###

system: Mus musculus; test: Biodistribution in tumor of C57BL/6J mouse bearing mouse B16F0 cells at 0.37 to 1.85 MBq, iv after 3 hrs by gamma counting method; assay type: ADME, organism-based; details: in vivo
property_name: Drug uptake (% ID/g)
Answer with a number only, understood to be in % ID/g.

[
  {
    "structure_string": "O=C(c1ccc2c(n1)NCCC2)N1CCN(Cc2ccc([123I])cc2)CC1",
    "reading_unit": "% ID/g",
    "Drug uptake": 32.1
  },
  {
    "structure_string": "O=C(c1ccc2cccnc2n1)N1CCN(Cc2ccc([123I])cc2)CC1",
    "reading_unit": "% ID/g",
    "Drug uptake": 20
  },
  {
    "structure_string": "O=C(CN1Cc2ccccc2C1=O)NC1CCN(Cc2ccc([123I])cc2)CC1",
    "reading_unit": "% ID/g",
    "Drug uptake": 11.6
  }
]

As a next step, examine the compound that follows.
[ask] Param item = O=C(CN1Cc2ccccc2C1=O)N1C[C@H]2CN(Cc3ccc([123I])cc3)C[C@H]2C1 ; retrieve measured Drug uptake.
[reply] 10.8

###

test system: Mus musculus; test: Biodistribution in tumor of C57BL/6J mouse bearing mouse B16F0 cells at 0.37 to 1.85 MBq, iv after 16 hrs by gamma counting method; type: ADME, organism-based; details: in vivo
property_name: Drug uptake
Provide a numeric answer, followed by its unit.

[
  {
    "structure_string": "O=C(CN1Cc2ccccc2C1=O)NC1CCN(Cc2ccc([123I])cc2)CC1",
    "Drug uptake": "18.1 % ID/g"
  },
  {
    "structure_string": "O=C(c1ccc2c(n1)NCCC2)N1CCN(Cc2ccc([123I])cc2)CC1",
    "Drug uptake": "20.4 % ID/g"
  },
  {
    "structure_string": "O=C(c1ccc2cccnc2n1)N1CCN(Cc2ccc([123I])cc2)CC1",
    "Drug uptake": "18.4 % ID/g"
  }
]

Consider the additional compound presented here.
[ask] Drug uptake for O=C(CN1Cc2ccccc2C1=O)N1C[C@H]2CN(Cc3ccc([123I])cc3)C[C@H]2C1 ?
[reply] 11.6 % ID/g

###

tested on: Mus musculus; assay: Biodistribution in eyes of C57BL/6J mouse bearing mouse B16F0 cells at 0.37 to 1.85 MBq, iv after 16 hrs by gamma counting method; type: ADME, organism-based, Eye; details: in vivo
The following compounds are listed with their measured Drug uptake values.
Report the figure in % ID/g without appending any unit label.

[
  {
    "structure_string": "O=C(CN1Cc2ccccc2C1=O)NC1CCN(Cc2ccc([123I])cc2)CC1",
    "target": "Mus musculus",
    "Drug uptake (% ID/g)": 40.4
  },
  {
    "structure_string": "O=C(c1ccc2cccnc2n1)N1CCN(Cc2ccc([123I])cc2)CC1",
    "target": "Mus musculus",
    "Drug uptake (% ID/g)": 32.9
  },
  {
    "structure_string": "O=C(CN1Cc2ccccc2C1=O)N1C[C@H]2CN(Cc3ccc([123I])cc3)C[C@H]2C1",
    "target": "Mus musculus",
    "Drug uptake (% ID/g)": 22.1
  }
]

Now, please, on to the next compound.
[ask] What value of Drug uptake has been recorded for this entry: O=C(c1ccc2c(n1)NCCC2)N1CCN(Cc2ccc([123I])cc2)CC1
[reply] 28.6

###

tested on: Mus musculus; test: Biodistribution in thyroid gland of C57BL/6J mouse bearing mouse B16F0 cells at 0.37 to 1.85 MBq, iv after 3 hrs by gamma counting method; type: ADME, organism-based; settings: in vivo
property_name: Drug uptake (% ID/g)
Supply the numeric figure in % ID/g, leaving out any unit text.

[
  {
    "structure_string": "O=C(c1ccc2cccnc2n1)N1CCN(Cc2ccc([123I])cc2)CC1",
    "Drug uptake / % ID/g": 2.2
  },
  {
    "structure_string": "O=C(c1ccc2c(n1)NCCC2)N1CCN(Cc2ccc([123I])cc2)CC1",
    "Drug uptake / % ID/g": 2.7
  },
  {
    "structure_string": "O=C(CN1Cc2ccccc2C1=O)NC1CCN(Cc2ccc([123I])cc2)CC1",
    "Drug uptake / % ID/g": 3.4
  }
]

Next item in the queue.
[ask] Please report the recorded Drug uptake for O=C(CN1Cc2ccccc2C1=O)N1C[C@H]2CN(Cc3ccc([123I])cc3)C[C@H]2C1 .
[reply] 1.5

###

system: Mus musculus; assay: Biodistribution in tumor of C57BL/6J mouse bearing mouse B16F0 cells at 0.37 to 1.85 MBq, iv after 24 hrs by gamma counting method; assay type: ADME, organism-based; details: in vivo
Measured Drug uptake of individual entries
For clarity, give the value followed by its unit.

Consider the reported Drug uptake for these molecules:
[
  {
    "structure_string": "O=C(c1ccc2c(n1)NCCC2)N1CCN(Cc2ccc([123I])cc2)CC1",
    "property_name": "Drug uptake",
    "meas_value": "12.9 % ID/g"
  },
  {
    "structure_string": "O=C(CN1Cc2ccccc2C1=O)NC1CCN(Cc2ccc([123I])cc2)CC1",
    "property_name": "Drug uptake",
    "meas_value": "15.2 % ID/g"
  },
  {
    "structure_string": "O=C(CN1Cc2ccccc2C1=O)N1C[C@H]2CN(Cc3ccc([123I])cc3)C[C@H]2C1",
    "property_name": "Drug uptake",
    "meas_value": "7.8 % ID/g"
  }
]

Kindly consider the entry below.
[ask] So what's the measured Drug uptake for this one? O=C(c1ccc2cccnc2n1)N1CCN(Cc2ccc([123I])cc2)CC1
[reply] 14.4 % ID/g

###

system: Spleen; test: Biodistribution in spleen of C57BL/6J mouse bearing mouse B16F0 cells at 0.37 to 1.85 MBq, iv after 1 hr by gamma counting method; assay type: ADME, organism-based; conditions: in vivo
property_name: Drug uptake (% ID/g)
Only the number, expressed in % ID/g, is required.

Consider the worked cases shown below.
[
  {
    "structure_string": "O=C(c1ccc2cccnc2n1)N1CCN(Cc2ccc([123I])cc2)CC1",
    "reading_unit": "% ID/g",
    "Drug uptake": 2.6
  },
  {
    "structure_string": "O=C(CN1Cc2ccccc2C1=O)NC1CCN(Cc2ccc([123I])cc2)CC1",
    "reading_unit": "% ID/g",
    "Drug uptake": 9.6
  }
]

[ask] Consider the compound shown here: O=C(CN1Cc2ccccc2C1=O)N1C[C@H]2CN(Cc3ccc([123I])cc3)C[C@H]2C1 What is its recorded Drug uptake?
[reply] 0.2

[ask] Consider the compound O=C(c1ccc2c(n1)NCCC2)N1CCN(Cc2ccc([123I])cc2)CC1 and give its measured Drug uptake.
[reply] 3.5

###

system: Mus musculus; test: Biodistribution in small gastrointestinal tract of C57BL/6J mouse bearing mouse B16F0 cells at 0.37 to 1.85 MBq, iv after 3 hrs by gamma counting method; assay type: ADME, organism-based, Small intestine; details: in vivo
property_name: Drug uptake (% ID/g)
API: value field is a number in % ID/g; no unit string.

[
  {
    "structure_string": "O=C(c1ccc2cccnc2n1)N1CCN(Cc2ccc([123I])cc2)CC1",
    "Drug uptake (% ID/g)": 14.1
  },
  {
    "structure_string": "O=C(CN1Cc2ccccc2C1=O)NC1CCN(Cc2ccc([123I])cc2)CC1",
    "Drug uptake (% ID/g)": 12
  },
  {
    "structure_string": "O=C(c1ccc2c(n1)NCCC2)N1CCN(Cc2ccc([123I])cc2)CC1",
    "Drug uptake (% ID/g)": 63.8
  }
]

Here is the next item to consider.
[ask] Look up Drug uptake: O=C(CN1Cc2ccccc2C1=O)N1C[C@H]2CN(Cc3ccc([123I])cc3)C[C@H]2C1
[reply] 15.2

These data points were gathered from ChEMBL document CHEMBL3588831.
